target.of.assay: OsWOX13 (Oryza sativa, UniProt Q5QMM3 1-267)
Sequence: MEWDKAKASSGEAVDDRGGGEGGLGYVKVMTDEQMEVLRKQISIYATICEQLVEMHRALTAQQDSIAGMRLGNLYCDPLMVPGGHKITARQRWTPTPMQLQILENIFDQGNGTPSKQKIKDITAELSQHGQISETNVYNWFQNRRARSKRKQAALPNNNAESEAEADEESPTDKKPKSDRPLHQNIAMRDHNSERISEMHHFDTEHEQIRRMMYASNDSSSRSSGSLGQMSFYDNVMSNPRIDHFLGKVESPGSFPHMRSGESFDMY
run.description: protein-binding microarray (RPBM); PBS, 2% BSA, 51.3 ng/ul salmon testes DNA, 50 uM zinc acetate, 200 nM TF, 25 C, 1 h; high values mean tight binding
run.parameters: protein: recombinant; tags: N-terminal polyhistidine and DsRed monomer fusion (pET32a); label: CyDye5-dUTP incorporated in the synthesized complementary strand; 3' TTTTT single-stranded linker to array surface; dsDNA, one strand shown
Whole data set: some 35,000 sequences, median “fluorescence intensity (a.u.)” near 10,000, cut for the highest 2% near 52,000. This excerpt belongs to a sample that is enriched for the highest values.
Recorded binding signal for the following sequences
observed.property: binding signal

[
  {
    "sequence.content": "ATACATTGATTAATCAGCCAGCCAGCCAGCCAGCCACTGACGGAGTCACCTAGTGCAG",
    "target.of.assay": "OsWOX13 (Oryza sativa, UniProt Q5QMM3 1-267)",
    "result.value": "28700 fluorescence intensity (a.u.)"
  },
  {
    "sequence.content": "GTATGGATCACCTGATTAATTGGGCCGTCGTTCCATTCCCCGGAGTCACCTAGTGCAG",
    "target.of.assay": "OsWOX13 (Oryza sativa, UniProt Q5QMM3 1-267)",
    "result.value": "9310 fluorescence intensity (a.u.)"
  },
  {
    "sequence.content": "TTTTGATTGACAGCGGAAATTACTCGATATTGTTCTTCAACGGAGTCACCTAGTGCAG",
    "target.of.assay": "OsWOX13 (Oryza sativa, UniProt Q5QMM3 1-267)",
    "result.value": "64300 fluorescence intensity (a.u.)"
  },
  {
    "sequence.content": "GTAGCAATCAAATATGGGCCGGTCAATTGTTCGCGGTAGACGGAGTCACCTAGTGCAG",
    "target.of.assay": "OsWOX13 (Oryza sativa, UniProt Q5QMM3 1-267)",
    "result.value": "4130 fluorescence intensity (a.u.)"
  },
  {
    "sequence.content": "ATGAAATCAAGGTTTTGCAAATTGAAATCCATGTTTTGGTCGGAGTCACCTAGTGCAG",
    "target.of.assay": "OsWOX13 (Oryza sativa, UniProt Q5QMM3 1-267)",
    "result.value": "8140 fluorescence intensity (a.u.)"
  },
  {
    "sequence.content": "GCTCCAATTTAATTTCAAAATGAATTTATATATTCATTGTCGGAGTCACCTAGTGCAG",
    "target.of.assay": "OsWOX13 (Oryza sativa, UniProt Q5QMM3 1-267)",
    "result.value": "14100 fluorescence intensity (a.u.)"
  },
  {
    "sequence.content": "CTAATTAGGTCCAGGACATTAAATGGGTTGATTACGTCACCGGAGTCACCTAGTGCAG",
    "target.of.assay": "OsWOX13 (Oryza sativa, UniProt Q5QMM3 1-267)",
    "result.value": "8450 fluorescence intensity (a.u.)"
  },
  {
    "sequence.content": "TAATTGATTAATTAATAATACTCCAGCTGCAGCAACGGCACGGAGTCACCTAGTGCAG",
    "target.of.assay": "OsWOX13 (Oryza sativa, UniProt Q5QMM3 1-267)",
    "result.value": "47300 fluorescence intensity (a.u.)"
  },
  {
    "sequence.content": "ACAGTTCCTTTGTGCCAATCATTGAACCCGGGAATGCTGGCGGAGTCACCTAGTGCAG",
    "target.of.assay": "OsWOX13 (Oryza sativa, UniProt Q5QMM3 1-267)",
    "result.value": "4780 fluorescence intensity (a.u.)"
  }
]

Cited source: paper PMC7819943
